Quick reference for inhibition of SARS-CoV-2 cytopathic effect among some compounds
System: Vero E6 infected with SARS-CoV-2
Assay: inhibition of SARS-CoV-2 cytopathic effect; higher = more antiviral protection, active = above 15
Settings: 1 nM; 48 h
result type: inhibition of SARS-CoV-2 cytopathic effect

- compound: "Cn1c(-c2ccccc2)nnc1S(C)(=O)=O"
  result value: "2.45% (inactive)"
- compound: "O=C(O)c1ccc(-n2nc(-c3ccccc3O)nc2-c2ccccc2O)cc1 [deferasirox]"
  result value: "-0.67% (inactive)"
- compound: "CCOC(=O)C1=C(C)NC(C)=C(C(=O)OC)[C@@H]1c1cccc([N+](=O)[O-])c1 (racemic) [nitrendipine]"
  result value: "1.59% (inactive)"
- compound: "C=Cc1c(C)c2cc3nc(c(CC(=O)O)c4[n-]c(cc5nc(cc1[n-]2)C(C)=C5CC)c(C)c4C(=O)O)[C@@H](CCC(=O)O)[C@@H]3C.[Cu+2] [chlorophyllin-copper]"
  result value: "-0.37% (inactive)"
